- Tested on: MCF7 breast
- Method Description: NCI-60 one-dose screen, 48 h
- Run Parameters: 10 µM unless noted
Compounds without any hit were thinned out: in the full panel of roughly 83,000, 20% have a hit. Active and inactive are the calls of the source. How the source made its calls: active means growth percent below 10; inactive means the rest.
Outcomes: true (1) for active, false (0) for inactive

1) CCN1C(=O)N(CC)C2C1NN=c1s/c(=C\c3cc4ccccc4[nH]3)c(=O)n12 (configuration not stated)    true (1)
2) Cc1ccc(Nc2nc(-c3ccc(F)cc3)c(C#N)c(=O)n2C)cc1    false (0)
3) O[C@@H](c1cc(C(F)(F)F)nc2c(C(F)(F)F)cccc12)[C@H]1CCCCN1    false (0)
4) O=C(CSc1nnc2sc(Nc3cccc(Cl)c3)nn12)c1ccc(F)cc1    false (0)
5) Cc1cc(C)cc(Nc2ccc([N+](=O)[O-])c(NCCN3CCOCC3)n2)c1    false (0)
6) O=C(CN1C(=O)/C(=C/c2ccco2)SC1=S)NCCc1c[nH]c2ccc(F)cc12    false (0)
7) CN(C)Cc1ccc(C(=O)Nc2ccc3ncnc(Nc4ccc(Oc5cccc(F)c5)c(Cl)c4)c3c2)cc1    true (1)
8) O=C1CC2C=CCN2C=C1NC(=O)C1CCCCC1 (configuration not stated)    false (0)
9) Nc1nc(C(=O)N/N=C/c2ccc(N3CCOCC3)cc2)nn1-c1ccc(S(N)(=O)=O)cc1    false (0)
10) Cc1c2ccccc2nc2c1ccc1cccnc12    false (0)
11) CCCCCCC(CCCC)COC(=O)c1ccc(Cl)cc1 (configuration not stated)    false (0)
12) COc1cc2cc(NCc3ccc(OC(F)F)cc3)nc(C)c2cc1OC    false (0)
13) Cc1ccc(S(=O)(=O)n2cc(C3C(Cl)C(=O)N3c3ccc(N4CCOCC4=O)cc3)c3ccccc32)cc1 (configuration not stated)    false (0)
14) O=C(CCC(=O)c1nc2ncccc2[nH]1)NN1C(=O)CSC1c1ccc(Cl)cc1 (configuration not stated)    false (0)
15) CN1CCCc2cc(/C=C3/SC(=S)N(CCc4ccc(O)cc4)C3=O)ccc21    false (0)
16) COc1cccc(NC(=O)c2cccc(C3CCc4c(cc(OC)c(OC)c4OC)O3)c2)c1 (configuration not stated)    false (0)
17) O=C1OCC2=C1C(c1cccc(F)c1)c1cc3c(cc1N2CCO)OCO3 (configuration not stated)    false (0)
18) O=C(NCc1ccccc1O)c1cccc2ccccc12    false (0)
19) COc1cccc(/C=C/C(=O)c2cc3c(N)c(C(=O)Nc4ccccc4C)sc3nc2C)c1    true (1)
20) Cc1ccc2[nH]c(-c3ccc(S(C)(=O)=O)cc3)c(/C=N/N=C(N)N)c2c1    false (0)
21) CN(C)c1ccc(C(=NO)c2ccc(N(C)C)cc2)cc1    false (0)
22) CCCCCn1sc(=O)n(Cc2ccc(CNC(=O)OCc3ccc4c(Cl)cc(Cl)c(O)c4n3)cc2)c1=O    false (0)
23) CC(C)c1ccc(C(=O)Nc2sc3cc(O)ccc3c2C#N)cc1    false (0)
24) COc1cc2c(/C=C3\C(=O)Nc4ccccc43)c(C(=O)O)[nH]c2cc1C    false (0)
25) COc1ccc(-c2oc(=O)ccc2-c2cc(OC)c(OC)c(OC)c2)cc1O    false (0)
26) CC/C(Cc1ccccc1)=C(\c1ccc(OCCN2CCCCCC2)cc1)c1ccc(OC(=O)NCc2ccccc2)cc1    false (0)
27) CCOC(=O)Cn1c(=O)c2c3ccccc3n(C)c2n2nnc(-c3ccccc3)c12    false (0)
28) O=C1/C(=C/c2ccc(Br)cc2)COc2ccc(O)c(O)c21    true (1)
29) CN1C(=O)/C(=C/c2ccc(C(=O)Nc3ncc(Cc4ccc(F)cc4)s3)cc2)SC1=S    false (0)
30) CC(C)(C)c1cc(C=Nc2cccc(C(F)(F)F)c2)c(O)c(C(C)(C)C)c1    false (0)
31) CCOC(=O)c1c2c(n3c1NCC3)-c1ccccc1C2=O    false (0)
32) CC1(C)CCC(S(=O)(=O)c2ccc3c(c2)/C(=N\O)c2cc(S(=O)(=O)N4CCN(c5ccc(F)cc5O)CC4)ccc2-3)CC1    true (1)
33) C=NNc1ccccc1    false (0)
34) CNC(=O)c1c(NC(=O)c2ccc(C(C)(C)C)cc2)sc2c(CN(C)C)c(O)ccc12    true (1)
35) C/C(=C(/c1ccc(Cl)cc1)c1ccc(OCCCN(C)C)cc1)c1ccc(Cl)cc1    false (0)
36) COc1ccc(C2=CN3CC=CCC3CC2=O)cc1 (configuration not stated)    false (0)
37) O=C(NCc1ccc2c(c1)OCO2)NCC1CCCC(CNC(=O)NCc2ccc3c(c2)OCO3)C1 (configuration not stated)    false (0)

* * *

- Test system: HCT-116 colon
- Method Description: NCI-60 one-dose screen, 48 h
- Run Parameters: 10 µM unless noted
This is part of a sample that, as a whole, favours compounds with a hit. Of some 83,000 tested, about 20% had one in any assay. Activity calls are given as the source filed them. The calls were made as follows: active = growth percent below 10; inactive = the rest.
Outcomes: label 1 for active, label 0 for inactive

1. O=C(O)C1CN(c2cccc(Cl)c2)N(c2cccc(Cl)c2)C1=O (stereo not given)    label 0
2. COc1ccc(C(C)=O)cc1S(N)(=O)=O    label 0
3. CSCCC(NC(=O)c1ccccc1)C(=O)N/N=C1\S/C(=C/c2ccc(Cl)cc2)C(=O)N1C (stereo not given)    label 0
4. Cc1ccc(C)c(-n2c(-c3ccc(Br)cc3)csc2=NC(=O)c2ccccc2F)c1    label 0
5. C[N+](C)(C/C=C/c1ccccc1)Cc1ccccc1    label 0
6. COc1cccc(OC)c1Oc1c(-c2nc3ccccc3s2)c(C)nn1-c1ccccc1    label 0
7. NC(=S)N/N=C/c1cn(-c2ccccc2)nc1-c1cc2ccccc2oc1=O    label 0
8. C=C(C)[C@@H]1CC[C@]2(CO)CC[C@]3(C)[C@H](CC[C@@H]4[C@@]5(C)CCC(NCCc6ccc(O)cc6)C(C)(C)[C@@H]5CC[C@]43C)[C@@H]12 (stereo not given in full)    label 1
9. CCN(CC)c1ccc(/C=N/NC(=O)c2ccc(Nc3ccnc(C(F)(F)F)c3)cc2)c(O)c1    label 0
10. CCOC(=O)c1c(C)nc2ccccc2c1/C=C/c1ccc(OC)cc1    label 0
11. O=C1c2cccnc2C(=O)c2c1c(C(=O)OCCCN1CCCCC1)c1ccccn21    label 1
12. CN1CCCc2cc(/C=C3/SC(=S)N(CCc4ccc(O)cc4)C3=O)ccc21    label 0
13. CC(O)c1ncc(/C=C2\SC(=S)N(Cc3ccccc3)C2=O)s1 (stereo not given)    label 0
14. COc1cc2c(cc1O)[C@@]1(C)[C@H](c3ccccc3Br)OC(=O)N1CC2    label 0
15. N#Cc1c(-c2ccccc2)nc2c(c(-c3ccccc3)nn2-c2ccccc2)c1-c1ccc(N2CCOCC2)cc1    label 0
16. COc1cc(-c2nc3occn3c2-c2ccnc(NCCCNS(=O)(=O)c3ccccc3)n2)ccc1F    label 0
17. COc1ccc(C/C(C)=C(\c2ccc(O)cc2)c2ccc(OCCN3CCCC3)cc2)cc1    label 0
18. O=C(NCc1ccc2c(c1)OCO2)NCC1CCCC(CNC(=O)NCc2ccc3c(c2)OCO3)C1 (stereo not given)    label 0
19. O=C(CCl)Nc1ccc2c(Nc3cc(O)ccc3Cl)ncnc2c1    label 1
20. O=C1NC(=C(Cl)Cl)/C(=N/S(=O)(=O)NCCc2c[nH]c3ccccc23)N1    label 0

* * *

- Test system: LOX IMVI melanoma
- Method Description: NCI-60 one-dose screen, 48 h
- Run Parameters: 10 µM unless noted
Compounds without any hit were thinned out: in the full panel of roughly 83,000, 20% have a hit. Activity calls are given as the source filed them. How the source made its calls: active means growth percent below 10; inactive means the rest.
Outcomes: class 1 for active, class 0 for inactive

1) COc1cccc(Nc2ccnc3[nH]c4ccc([N+](=O)[O-])cc4c23)c1    class 0
2) CC(C)(C)C(=O)/C=C/c1ccc([N+](=O)[O-])cc1    class 0
3) COc1cc(C2C3=C(COC3=O)N(CCO)c3cc4c(cc32)OCCO4)cc(OC)c1OC (stereo unspecified)    class 0
4) O=C(Cn1nnc2ccccc21)Nc1ccc(-c2nc3ccccc3s2)cc1    class 0
5) NC(=O)c1c(NC(=O)c2ccc(Cl)cc2)sc2c1CCC(=O)C2    class 0
6) COc1cc2cc(Oc3ccc(NC(=O)Nc4ccccc4)cc3)c(C)nc2cc1OCCN1CCCCC1    class 0
7) CS(=O)(=O)Cc1cnc(C2OCCO2)s1    class 0
8) CCOC(=O)c1cn2ncnc(Oc3ccc(NC(=O)NC4CC4)c(F)c3)c2c1C    class 0
9) CCOC(=O)C1CCN(c2ccc(N3C[C@@H](CNCc4ccc(C(=N)N)cc4)OC3=O)cc2)CC1    class 0
10) O=S(=O)(c1ccccc1)N1CCCN(c2nc(-c3ccccc3)nc3nc(-c4ccccc4)oc23)CC1    class 0
11) O=C1C(Cl)=C(NCCN2CCOCC2)C(=O)c2ncccc21    class 1
12) CCOC(=O)Nc1nc2ccc(SCC(C)C)cc2s1    class 0
13) O=C(CN1C(=O)/C(=C/c2ccco2)SC1=S)NCCc1c[nH]c2ccc(F)cc12    class 0
14) COc1ccccc1NC(=O)c1ccc(/C=C/C(=O)c2nccn2C)cc1    class 1
15) O=C1N[C@@H]2[C@@H](O)[C@@H](O)[C@H](O)C[C@H]2c2cc3c(c(O)c21)OCCO3    class 1
16) CC(C)(CO)N(CCO)CCO    class 0
17) C=CC(C)(O)CC/C=C(\CO)C(=O)OC1C(C)OC(O[C@](C)(C=C)CC/C=C(\CO)C(=O)O[C@H]2C[C@@]3(C(=O)OC4OC(CO)C(O)C(O)C4OC4OC(C)C(OC5OC(CO)C(O)C5O)C(OC5OC(CO)C(O)C(O)C5O)C4O)C(CC2(C)C)C2=CCC4[C@@]5(C)CC[C@H](OC6OC(COC7OC(C)C(O)C(O)C7OC7OCC(O)C(O)C7O)C(O)C(O)C6NC(C)=O)C(C)(C)C5CC[C@@]4(C)[C@]2(C)C[C@H]3O)C(O)C1O (stereo partly specified)    class 1
18) CN1CCN(Cc2ccc(NC(=O)c3cncc(C#Cc4cncc5ncccc45)c3)cc2C(F)(F)F)CC1    class 1
19) CC(C)CSc1oc(-c2ccccc2)nc1S(=O)(=O)c1ccccc1    class 0
20) O=C(O)CCCc1cnc2c3sccc3nc(SCc3c(Cl)cccc3Cl)n12    class 0
21) CCNC(=O)Oc1ccc(/C(=C(/C)Cc2ccc(OC)cc2)c2ccc(OCCN3CCCC3)cc2)cc1    class 0
22) O=C(CCCCNC(=O)c1cc(=O)c(O)co1)Nc1ccccc1    class 0
23) COc1ccc(/C=C/C(=O)c2cc3c(N)c(C(=O)Nc4ccc(OC)cc4)sc3nc2C)cc1    class 0
24) COc1ccc2[nH]cc(-c3nc(-c4cn(C)c5ccncc45)cs3)c2c1    class 1
25) N#Cc1c(Nc2ccc(F)cc2)n[nH]c1-c1cccs1    class 0
26) C=C1C(=O)O[C@H]2[C@H]1CC/C(COC(=O)c1cc3cc(F)ccc3[nH]1)=C\CC[C@@]1(C)O[C@@H]21    class 1

Sourced from PubChem BioAssay (NCI)
